Test system: Caupolican (Caup) homeodomain DNA-binding domain
Sequence: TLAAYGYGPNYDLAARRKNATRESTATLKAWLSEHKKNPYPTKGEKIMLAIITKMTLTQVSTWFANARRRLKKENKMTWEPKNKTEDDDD
Test: PBM E-score (8-mer, recovered from the published 9-mer minima) (E-score (dimensionless, -0.5 to 0.5)); Drosophila protein; higher = stronger relative binding preference, active = 0.31 or more
The entries come from a sample that favours hits as a whole. No count for the full screen is at hand.
Select the correct class. Options are Y for active, N for inactive and nothing else.

Example entries and their recorded answers appear below.
## Task Given "GTGCTCCA" , state the outcome it received in this test.
## Result N

## Task Try this sequence next: "CTCTCAGC"
## Result N

## Task Try this sequence next: "CGGTGTTC"
## Result N

## Task Try this sequence next: "CCTGTACG"
## Result N

## Task Try this sequence next: "ATTGTCCG"
## Result N

## Task Try this sequence next: "TGATTGCA"
## Result N

## Task Try this sequence next: "AGCTATAG"
## Result N

## Task Try this sequence next: "CCAATCAA"
## Result N

## Task Try this sequence next: "TATTCTCA"
## Result N

## Task Try this sequence next: "AATGTACG"
## Result N

Now, please, on to the next sequence.
## Task Given "TACAGAAA" , state the outcome it received in this test.
## Result N
